biological target: HIV-1 gp41 (HXB2 strain) (HIV-1 HXB2, UniProt P04578 512-856); assay: cell-based or functional assay
Bridge positions count the residues as written; N and C are the ends. Square brackets hold non-standard residues; d marks the D form. Ends that are not written are not given here.
Please note: IC50 (HXB2), pseudovirion entry exactly at 40 nM is F. Only values below 40 nM get T.

{"columns": ["Binder", "Category Label"],
 "data": [
  ["Ac-[dK]G[dA][dC][dD][dY][dP][dE][dW][dQ][dW][dL][dC][dA][dA]-NH2 (disulfide 4-13 (inferred); also: dimer: N-terminal Lys of both peptides joined by Bis-dPEG9 NHS ester crosslinker) [PEG-(PIE7)2]", "T"],
  ["[dK]G[dA][dC][dD][dY][dP][dE][dW][dQ][dW][dL][dC][dA][dA] (disulfide 4-13 (inferred); also: dimer joined N- to C-terminus by PEG9 spacer) [N9C(PIE7)2]", "T"],
  ["[dK]G[dA][dC][dD][dY][dP][dE][dW][dQ][dW][dL][dC][dA][dA] (disulfide 4-13 (inferred); also: dimer joined N- to C-terminus by PEG5 spacer) [N5C(PIE7)2]", "T"],
  ["[dK]G[dA][dC][dD][dY][dP][dE][dW][dQ][dW][dL][dC][dA][dA] (disulfide 4-13 (inferred); also: trimer, N-termini joined by PEG9 spacers) [N9N(PIE7)3]", "T"],
  ["G[dA][dC][dD][dY][dP][dE][dW][dQ][dW][dL][dC][dA][dA]G[dK] (disulfide 3-12 (inferred); also: three peptides attached directly to central scaffold TSAT, site not given here) [PIE7-GK short claw]", "T"],
  ["Ac-[dH][dA][dC][dD][dY][dP][dE][dW][dQ][dW][dL][dC][dE][dL]G[dK]-NH2 (disulfide 3-12 (inferred)) [PIE15]", "F"],
  ["[dK]G[dA][dC][dD][dY][dP][dE][dW][dQ][dW][dL][dC][dA][dA] (disulfide 4-13 (inferred); also: dimer joined N- to N-terminus by PEG5 spacer) [N5N(PIE7)2]", "T"],
  ["Ac-G[dA][dC][dD][dY][dP][dE][dW][dQ][dW][dL][dC][dA][dA]G[dK]-NH2 (disulfide 3-12 (inferred)) [PIE7-GK]", "F"],
  ["Ac-G[dA][dC][dD][dY][dP][dE][dW][dQ][dW][dL][dC][dA][dA]G[dK][dK]-NH2 (disulfide 3-12 (inferred)) [PIE7-GKK]", "F"],
  ["[dK]G[dA][dC][dD][dY][dP][dE][dW][dQ][dW][dL][dC][dA][dA] (disulfide 4-13 (inferred); also: dimer joined N- to N-terminus by zero length spacer) [N0N(PIE7)2]", "T"],
  ["G[dA][dC][dD][dY][dP][dE][dW][dQ][dW][dL][dC][dA][dA]G[dK] (disulfide 3-12 (inferred); also: three peptides attached to central scaffold LC-TSAT (six-atom spacer), site not given here) [PIE7-GK long claw]", "T"],
  ["[dK]G[dA][dC][dD][dY][dP][dE][dW][dQ][dW][dL][dC][dA][dA] (disulfide 4-13 (inferred); also: dimer joined N- to C-terminus by zero length spacer) [N0C(PIE7)2]", "T"],
  ["Ac-G[dA][dC][dD][dY][dP][dE][dW][dQ][dW][dL][dC][dA][dA]G[dK]-NH2 (disulfide 3-12 (inferred); also: PEG4 attached at the C-terminus, order with amide not given here) [PIE7-GK-PEG4]", "F"],
  ["Ac-[dH][dP][dC][dD][dY][dP][dE][dW][dQ][dW][dL][dC][dK][dL]G[dK]-NH2 (disulfide 3-12 (inferred)) [PIE13]", "F"]
]}
